- Method summary: Tmax value at a dose of 10 mg/kg peroral administration in mice.
- Format: ADME, organism-based
- Design: dose 10 mg/kg, route oral
- Experimental context: mouse, in vivo, po
Measured parameter: Tmax (min)
Lab book: enter the figure in min, no units written.

Qu. Look up Tmax for this compound: `CC(C)(C)c1cnc(CSc2cnc(NC(=O)Cc3ccc(CNC(CO)CO)cc3)s2)o1`
Ans. 19.8

---

- System name: Cyclin-dependent kinase 4/cyclin D1 (Homo sapiens, UniProt P11802)
- Sequence (P11802 whole entry): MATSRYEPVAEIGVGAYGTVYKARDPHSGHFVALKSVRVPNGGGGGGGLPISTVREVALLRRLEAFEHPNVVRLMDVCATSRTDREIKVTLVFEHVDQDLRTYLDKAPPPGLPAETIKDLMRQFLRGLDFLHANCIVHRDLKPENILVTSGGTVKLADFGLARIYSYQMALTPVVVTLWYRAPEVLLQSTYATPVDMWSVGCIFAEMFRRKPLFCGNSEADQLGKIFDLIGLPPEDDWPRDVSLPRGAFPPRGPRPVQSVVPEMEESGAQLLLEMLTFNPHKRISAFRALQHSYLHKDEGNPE
- Sequence (P24385 whole entry, further chain): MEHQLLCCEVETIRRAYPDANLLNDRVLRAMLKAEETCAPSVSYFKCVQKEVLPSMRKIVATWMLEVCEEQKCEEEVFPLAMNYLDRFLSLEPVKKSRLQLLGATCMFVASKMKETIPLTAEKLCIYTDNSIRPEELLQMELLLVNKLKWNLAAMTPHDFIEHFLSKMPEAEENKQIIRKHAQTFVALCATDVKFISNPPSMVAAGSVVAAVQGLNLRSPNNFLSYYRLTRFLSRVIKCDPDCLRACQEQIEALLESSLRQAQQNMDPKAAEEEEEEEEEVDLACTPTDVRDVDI
- Method summary: Inhibitory activity against baculovirus expressed Cyclin dependent kinase 4-cyclinD1
In this section, each of the compounds is paired with its reported pIC50.
# log scale: pIC50 equals minus log10 of the concentration in mol/L

The examples below pair each entry with its known result.
CC(=O)Nc1ncc(SCc2ncc(C(C)(C)C)o2)s1
6.16
CC(=O)Nc1ncc(SCC(=O)OCc2ccccc2)s1
4.72
CCc1cnc(CSc2cnc(NC(=O)Cc3cccnc3)s2)o1
5.96

Qu. Look up pIC50 for this compound: `CC(=O)Nc1ncc(SCc2ncc(C)o2)s1`
Ans. 5.29

Qu. Note, next up: `CC(=O)Nc1ncc(SCC(=O)OC(C)(C)C)s1`
Ans. 5.27

Qu. Note, next up: `CCc1cnc(CSc2cnc(NC(C)=O)s2)o1`
Ans. 5.65

Qu. Note, next up: `CC(C)OC(=O)Nc1ncc(SCc2ncc(C(C)(C)C)o2)s1`
Ans. 5.52

Qu. Note, next up: `CCOC(=O)CSc1cnc(NC(C)=O)s1`
Ans. 4.64

Qu. Note, next up: `CC(=O)Nc1ncc(SCc2ncc(C(C)C)o2)s1`
Ans. 5.97

---

- System name: Protein kinase C alpha type (Homo sapiens)
pIC50: −log10 of the molar value.
Measured parameter: pIC50

Qu. Look up pIC50 for this molecule: `CC(C)(C)c1cnc(CSc2cnc(NC(=O)Cc3ccc(CNC(CO)CO)cc3)s2)o1`
Ans. < 4.35

---

- System: MCF7
- Method summary: Inhibition of MCF-7 human breast carcinoma cell proliferation
- Assay type: functional, cell-based
Measured parameter: pIC50
# log scale: pIC50 equals minus log10 of the concentration in mol/L

CN1CC[C@H](c2c(O)cc(O)c3c(=O)cc(-c4ccccc4Cl)oc23)[C@H](O)C1
7.18

Shifting focus to the molecule that follows.
Qu. Look up pIC50 for this molecule: `CCc1cnc(CSc2cnc(NC(C)=O)s2)o1`
Ans. 5.83

---

- System name: Cyclin-dependent kinase 1/cyclin B (Homo sapiens)
- Method summary: Inhibitory activity against baculovirus expressed Cyclin dependent kinase 1-cyclinB
- Type: protein-complex assay
Bucketed by reported IC50, buckets being low: < 30 nM; moderate: ≥ 30 nM and < 90 nM; high: ≥ 90 nM

CC(=O)Nc1ncc(SCc2ncc(C(C)(C)C)o2)s1
moderate

Qu. Using the reported IC50, which band applies to `CC(C)C(=O)Nc1ncc(S(=O)(=O)Cc2ncc(C(C)(C)C)o2)s1` ?
Ans. high

Qu. Note, next up: `CC(=O)Nc1ncc(SCC(=O)OC(C)(C)C)s1`
Ans. high

Qu. Note, next up: `CC(C)(C)c1cnc(CSc2cnc(NC(=O)Nc3c(F)cccc3F)s2)o1`
Ans. low

Qu. Note, next up: `CCOC(=O)CSc1cnc(NC(C)=O)s1`
Ans. high

---

- Method summary: At a dose 50 mg/kg (114 umol/kg) was administered intraperitoneally to mice and was evaluated for MRT
- Type: ADME, organism-based
- Design: dose 50 mg/kg, route intraperitoneal
- Experimental context: mouse, in vivo, ip
Measured parameter: MRT (min)
Lab book: enter the figure in min, no units written.

Qu. Look up MRT for this compound: `CCc1cnc(CSc2cnc(NC(=O)Cc3cccnc3)s2)o1`
Ans. 48
